test_target: NT650/PD-L1 (recombinant human PD-L1) (Homo sapiens, UniProt Q9NZQ7)
Construct: purchased Abcam ab167713
Sequence (Q9NZQ7 19-290): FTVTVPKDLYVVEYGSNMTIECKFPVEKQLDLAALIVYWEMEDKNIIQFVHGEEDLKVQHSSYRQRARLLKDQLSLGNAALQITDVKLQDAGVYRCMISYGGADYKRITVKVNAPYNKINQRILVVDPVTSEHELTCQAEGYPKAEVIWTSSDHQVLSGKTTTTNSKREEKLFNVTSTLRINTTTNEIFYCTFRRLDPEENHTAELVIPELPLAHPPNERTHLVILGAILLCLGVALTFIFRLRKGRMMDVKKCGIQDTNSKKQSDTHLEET
assay_info: Full-point MST binding assay (Kd) at pH 7.2 and 6.2
setup_conditions: Kd ± c.v., pH 7.2, n.3
parameter_measured: Kd

[[record]]
compound = "C[C@]1(O)CC[C@@H]1N1CC2CCCCC2C1 (stereo partly shown)"
parameter_measured = "Kd"
readout_value = "> 250 µM"


----------
test_target: NT650/PD-L1 (recombinant human PD-L1) (Homo sapiens, UniProt Q9NZQ7)
Construct: purchased Abcam ab167713
assay_info: Full-point MST binding assay (Kd) at pH 7.2 and 6.2
setup_conditions: pH 6.2, n.3; read-out: Kd ± c.v.
parameter_measured: Kd (µM)

[[record]]
mol = "Cc1cc(/C(N)=N/O)cc(C)c1O"
readout_value = 47.8

[[record]]
mol = "Cc1cc(C(=N)NO)ccc1O"
readout_value = 55.4

[[record]]
mol = "N=C(NO)c1ccc(O)cc1"
readout_value = 45.2

[[record]]
mol = "Cc1cc(C)cc(C(=N)NO)c1"
readout_value = 95.6

[[record]]
mol = "Cc1cc(O)ccc1C(=N)NO"
readout_value = 54.9

[[record]]
mol = "N=C(NO)c1ccccc1-c1ccccc1"
readout_value = 70.8

